Reference source: patent US20120316071A1

Biological target: T1, Recombinant Human DLL4 (human, UniProt Q9NR61 27-524)
T1 construct: Bought recombinant human DLL4 (R&D Systems Cat#1506-D4/CF); also called delta-like protein 4; Delta-like 4
Test: ELISA, DLL4 coated on the plate, Fab at 100 nM, signal minus blank
Overview of reported ELISA Signal-blank (100 nM Fab) across a group of binders:
I only need the number, thanks.

Fab VH5-51_IGHD5-18*01>3_IGHJ4*01 G100K/G104T G24T/S28R/G35V (H:KT TRV) & V3-4_IGLJ1*01 R56A (Fab, V domains shown, Fab; expressed from plasmid A (CH1, His6 and Flag tags) and plasmid E (lambda CL)) VH: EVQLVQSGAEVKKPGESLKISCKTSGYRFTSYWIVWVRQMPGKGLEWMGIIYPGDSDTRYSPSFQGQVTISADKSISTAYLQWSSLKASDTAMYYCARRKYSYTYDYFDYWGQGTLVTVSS VL: QTVVTQEPSFSVSPGGTVTLTCGLSSGSVSTSYYPSWYQQTPGQAPRTLIYSTNTASSGVPDRFSGSILGNKAALTITGAQADDESDYYCVLYMGSGISYVFGTGTKVTVL    0.442
Fab VH5-51_IGHD5-18*01>3_IGHJ4*01 G100K/G104T G24T/S28R/G35V (H:KT TRV) & V3-4_IGLJ1*01 M94T (Fab, V domains shown, Fab; expressed from plasmid A (CH1, His6 and Flag tags) and plasmid E (lambda CL)) VH: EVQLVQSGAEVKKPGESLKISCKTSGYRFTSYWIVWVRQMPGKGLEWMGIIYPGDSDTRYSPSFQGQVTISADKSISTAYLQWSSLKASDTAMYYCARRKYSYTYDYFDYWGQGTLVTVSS VL: QTVVTQEPSFSVSPGGTVTLTCGLSSGSVSTSYYPSWYQQTPGQAPRTLIYSTNTRSSGVPDRFSGSILGNKAALTITGAQADDESDYYCVLYTGSGISYVFGTGTKVTVL    0.395
Fab VH5-51_IGHD5-18*01>3_IGHJ4*01 G100K/G104T G24T/S28R/G35V (H:KT TRV) & V3-4_IGLJ1*01 M94A (Fab, V domains shown, Fab; expressed from plasmid A (CH1, His6 and Flag tags) and plasmid E (lambda CL)) VH: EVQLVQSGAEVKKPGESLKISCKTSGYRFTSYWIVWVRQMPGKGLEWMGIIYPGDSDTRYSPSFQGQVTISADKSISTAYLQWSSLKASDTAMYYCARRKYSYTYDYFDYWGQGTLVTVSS VL: QTVVTQEPSFSVSPGGTVTLTCGLSSGSVSTSYYPSWYQQTPGQAPRTLIYSTNTRSSGVPDRFSGSILGNKAALTITGAQADDESDYYCVLYAGSGISYVFGTGTKVTVL    0.216
Fab VH5-51_IGHD5-18*01>3_IGHJ4*01 G100K/G104T G24T/S28R/G35V (H:KT TRV) & V3-4_IGLJ1*01 M94G (Fab, V domains shown, Fab; expressed from plasmid A (CH1, His6 and Flag tags) and plasmid E (lambda CL)) VH: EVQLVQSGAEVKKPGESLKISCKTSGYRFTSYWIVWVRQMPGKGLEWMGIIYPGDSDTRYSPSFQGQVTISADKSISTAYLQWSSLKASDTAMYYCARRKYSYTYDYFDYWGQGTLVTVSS VL: QTVVTQEPSFSVSPGGTVTLTCGLSSGSVSTSYYPSWYQQTPGQAPRTLIYSTNTRSSGVPDRFSGSILGNKAALTITGAQADDESDYYCVLYGGSGISYVFGTGTKVTVL    0.199
Fab VH5-51_IGHD5-18*01>3_IGHJ4*01 G100K/G104T G24T/S28R/G35V (H:KT TRV) & V3-4_IGLJ1*01 M94L (Fab, V domains shown, Fab; expressed from plasmid A (CH1, His6 and Flag tags) and plasmid E (lambda CL)) VH: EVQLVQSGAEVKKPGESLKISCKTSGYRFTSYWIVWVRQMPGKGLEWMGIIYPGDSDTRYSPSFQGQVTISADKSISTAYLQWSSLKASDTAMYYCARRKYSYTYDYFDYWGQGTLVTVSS VL: QTVVTQEPSFSVSPGGTVTLTCGLSSGSVSTSYYPSWYQQTPGQAPRTLIYSTNTRSSGVPDRFSGSILGNKAALTITGAQADDESDYYCVLYLGSGISYVFGTGTKVTVL    0.388

Ask: Item Fab VH5-51_IGHD5-18*01>3_IGHJ4*01 G100K/G104T G24T/S28R/G35V (H:KT TRV) & V3-4_IGLJ1*01 V91C (Fab, V domains shown, Fab; expressed from plasmid A (CH1, His6 and Flag tags) and plasmid E (lambda CL)) VH: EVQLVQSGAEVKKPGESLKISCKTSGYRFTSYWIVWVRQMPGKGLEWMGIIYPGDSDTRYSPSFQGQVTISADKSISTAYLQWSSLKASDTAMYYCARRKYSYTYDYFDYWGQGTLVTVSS VL: QTVVTQEPSFSVSPGGTVTLTCGLSSGSVSTSYYPSWYQQTPGQAPRTLIYSTNTRSSGVPDRFSGSILGNKAALTITGAQADDESDYYCCLYMGSGISYVFGTGTKVTVL has what recorded ELISA Signal-blank (100 nM Fab)?
Reply: 0.625

Ask: What value of ELISA Signal-blank (100 nM Fab) has been recorded for this entry: Fab VH5-51_IGHD5-18*01>3_IGHJ4*01 G100K/G104T G24T/S28R/G35V (H:KT TRV) & V3-4_IGLJ1*01 V91P (Fab, V domains shown, Fab; expressed from plasmid A (CH1, His6 and Flag tags) and plasmid E (lambda CL)) VH: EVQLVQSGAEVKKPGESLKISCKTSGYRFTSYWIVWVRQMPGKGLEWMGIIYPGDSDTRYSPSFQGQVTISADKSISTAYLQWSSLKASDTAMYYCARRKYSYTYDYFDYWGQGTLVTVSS VL: QTVVTQEPSFSVSPGGTVTLTCGLSSGSVSTSYYPSWYQQTPGQAPRTLIYSTNTRSSGVPDRFSGSILGNKAALTITGAQADDESDYYCPLYMGSGISYVFGTGTKVTVL
Reply: 0.078

Ask: Report ELISA Signal-blank (100 nM Fab) for Fab VH5-51_IGHD5-18*01>3_IGHJ4*01 G100K/G104T G24T/S28R/G35V (H:KT TRV) & V3-4_IGLJ1*01 S96W (Fab, V domains shown, Fab; expressed from plasmid A (CH1, His6 and Flag tags) and plasmid E (lambda CL)) VH: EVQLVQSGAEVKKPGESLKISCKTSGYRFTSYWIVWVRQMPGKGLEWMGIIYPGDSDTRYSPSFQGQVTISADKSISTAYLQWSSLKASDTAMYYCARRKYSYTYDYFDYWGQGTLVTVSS VL: QTVVTQEPSFSVSPGGTVTLTCGLSSGSVSTSYYPSWYQQTPGQAPRTLIYSTNTRSSGVPDRFSGSILGNKAALTITGAQADDESDYYCVLYMGWGISYVFGTGTKVTVL please.
Reply: 0.261

Ask: For the binder Fab VH5-51_IGHD5-18*01>3_IGHJ4*01 G100K/G104T G24T/S28R/G35V (H:KT TRV) & V3-4_IGLJ1*01 V91G (Fab, V domains shown, Fab; expressed from plasmid A (CH1, His6 and Flag tags) and plasmid E (lambda CL)) VH: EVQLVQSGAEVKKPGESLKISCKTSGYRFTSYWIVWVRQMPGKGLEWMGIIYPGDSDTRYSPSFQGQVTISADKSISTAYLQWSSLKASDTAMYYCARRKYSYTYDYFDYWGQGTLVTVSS VL: QTVVTQEPSFSVSPGGTVTLTCGLSSGSVSTSYYPSWYQQTPGQAPRTLIYSTNTRSSGVPDRFSGSILGNKAALTITGAQADDESDYYCGLYMGSGISYVFGTGTKVTVL , what ELISA Signal-blank (100 nM Fab) is on record?
Reply: 0.248

Ask: Item Fab VH5-51_IGHD5-18*01>3_IGHJ4*01 G100K/G104T G24T/S28R/G35V (H:KT TRV) & V3-4_IGLJ1*01 T55A (Fab, V domains shown, Fab; expressed from plasmid A (CH1, His6 and Flag tags) and plasmid E (lambda CL)) VH: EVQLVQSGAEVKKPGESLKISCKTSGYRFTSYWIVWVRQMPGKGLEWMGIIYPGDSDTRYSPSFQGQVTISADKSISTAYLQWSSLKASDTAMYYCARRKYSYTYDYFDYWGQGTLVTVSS VL: QTVVTQEPSFSVSPGGTVTLTCGLSSGSVSTSYYPSWYQQTPGQAPRTLIYSTNARSSGVPDRFSGSILGNKAALTITGAQADDESDYYCVLYMGSGISYVFGTGTKVTVL has what recorded ELISA Signal-blank (100 nM Fab)?
Reply: 0.382

Ask: # query: ELISA Signal-blank (100 nM Fab) of entry Fab VH5-51_IGHD5-18*01>3_IGHJ4*01 G100K/G104T G24T/S28R/G35V (H:KT TRV) & V3-4_IGLJ1*01 S96G (Fab, V domains shown, Fab; expressed from plasmid A (CH1, His6 and Flag tags) and plasmid E (lambda CL)) VH: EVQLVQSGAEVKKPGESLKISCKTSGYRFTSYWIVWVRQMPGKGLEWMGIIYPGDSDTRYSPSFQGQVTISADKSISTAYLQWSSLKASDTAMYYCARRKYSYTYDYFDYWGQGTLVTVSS VL: QTVVTQEPSFSVSPGGTVTLTCGLSSGSVSTSYYPSWYQQTPGQAPRTLIYSTNTRSSGVPDRFSGSILGNKAALTITGAQADDESDYYCVLYMGGGISYVFGTGTKVTVL
Reply: 0.562
